Overview of reported GI50 across a group of compounds:
# Tested on: SF-268
# assayProcedure: NCI tumour cell line growth inhibition, 48 h
Activity calls are given as the source filed them. Rule as the data show it: active = GI50 up to about 1.1 µM and inactive = higher.
measuredMetric: GI50

                                    compound               result
 0  C=C(COC(C)=O)CC(OC(C)=O)c1ccccc1 (stereo unspecified)  > 100 µM (inactive)
 1              O=C(O)c1ccccc1NC(=O)C1CCCCC1  > 100 µM (inactive)
 2              O=c1oc2ccccc2c2c1Sc1ccccc1N2   56.6 µM (inactive)
 3              O=C1CC(c2ccccc2)=Nc2ccccc2N1  > 100 µM (inactive)
 4  C#C[C@]1(O)CC[C@H]2[C@@H]3CCC4=C/C(=N/OC(=O)c5cccc6c(=O)c7ccccc7[nH]c56)CCC4[C@H]3CC[C@@]21CC (stereo partly specified)   66.4 µM (inactive)
 5         Cc1nc2ccccc2n1Cc1nnc(-c2ccccc2)o1  > 100 µM (inactive)
 6         O=C(O)c1ccccc1/C=C1\Cc2ccccc2C1=O  > 100 µM (inactive)
 7  C=C1C[C@@H](O)[C@@H](Br)C(C)(C)[C@]12CCC(C)(Cl)C(Br)C2 (stereo partly specified)     32 µM (inactive)
 8  O=C(n1[nH]c(=O)n(-c2ccc([N+](=O)[O-])cc2)c1=O)C(Cl)(Cl)Cl   > 75 µM (inactive)
 9  O=C1O/C(=C(/Cl)c2c3ccccc3cc3ccccc23)c2ccccc21   30.5 µM (inactive)
10        N#CC(=C1C=CC(=NO)C=C1)c1ccc(Cl)cc1   11.9 µM (inactive)

* * *

# Tested on: NCI-H522
# assayProcedure: NCI tumour cell line growth inhibition, 48 h
The source made the active and inactive calls. No stated cut-off is given here; in the data, active = GI50 up to about 1.1 µM and inactive = higher.
Labels: 1 for active, 0 for inactive

In [3]: df
Out[3]:
                                    molecule  group
 0  COC1=CC(=O)C(O)=C(CC2(C)C(C)CCC3(C)C2CCCC3(C)C)C1=O (configuration not stated)      0
 1            N#CCCN(CCC#N)c1ccc(C(=O)NN)cc1      0
 2              O=C(O)Cc1cc(O)c(CC(=O)O)cc1O      0
 3  COC(=O)C1C2CC3C(OC(=O)C31)C2I (configuration not stated)      0
 4  Cc1ccc(S(=O)(=O)n2c3c(c4ccccc42)CCN2C(=O)C(S(=O)(=O)c4ccccc4)=CCC32)cc1 (configuration not stated)      1
 5  COc1cc(C2c3cc4c(cc3[C@@H](Nc3ccc5c(c3)OCO5)C3COC(=O)[C@H]23)OCO4)cc(OC)c1O (some centres not stated)      1
 6                CNC(=O)CNC(=O)CCC(=O)N(C)C      0
 7  COc1ccc(/C=C2\CN(C)CC3C2=NN(c2ccccc2)C3c2ccc(OC)cc2)cc1 (configuration not stated)      0
 8               NCCCCN(CCCN)C(=O)OCc1ccccc1      0
 9  CC1(C)OC2CC(=O)OCC23C1CC(=O)C1(C)C3CCC2(C)C(c3ccoc3)OC(=O)C3OC321 (configuration not stated)      0
10  COc1cc(C2c3cc4c(cc3OC(NN)C2C)OCO4)cc(OC)c1O (configuration not stated)      0
11       COC(=O)c1ccc(CCc2cc(O)c(Br)cc2O)cc1      0
12  COC1C(N(C)C)=C(c2ccccc2)C(=O)N2CCc3ccccc3C12 (configuration not stated)      0
13  CC1C(C#N)(C#N)C(C#N)=C(N)C1(C)[N+](=O)[O-] (configuration not stated)      0
14  COc1c(O)cc2c(c1O)C1O[C@H](CO)C(O)[C@H](O)[C@H]1OC2=O (some centres not stated)      0
15  COC(=O)C(C(=O)C(=O)Nc1c(C)cccc1C)c1cnc2ccccc2n1 (configuration not stated)      0
16        COc1ccc([Se]c2ccc(OC)cc2OC)c(OC)c1      0

* * *

# System: U-251
# assayProcedure: NCI tumour cell line growth inhibition, 48 h
Calls of active or inactive are those of the source. Cut-off read from the data, not from the text of the source: active = GI50 up to about 1.1 µM and inactive = higher.
Labels: y (active), n (inactive)

In [3]: df
Out[3]:
                                    compound  group
 0  Cc1cccc(C(C)C)c1NC(=O)CC1Sc2ccccc2NC1=O (stereo unspecified)      n
 1  CCOC(=O)C12OC(CCC1=O)C(C(=O)OC)=C2C(=O)OC (stereo unspecified)      n
 2         CCc1cccc(C)c1NC(=O)CC(=O)NNC(N)=S      n
 3  COc1ccc(C[C@H]2NC[C@H](O)[C@H]2OC(C)=O)cc1      y
 4            Cc1cc(O)c2cc3c(O)c(O)ccc3cc2c1      y
 5                  CSc1snc2sc3c(Cl)nnnc3c12      n
 6  COC(=O)/C(=N\NC(=O)C[N+](C)(C)C)C(C(=O)OC)C(=O)C(=O)Nc1ccccc1C(N)=O (stereo unspecified)      n
 7  CC(=O)O[C@@H]1CO[C@H]2O[C@H]3[C@@H](C(C=O)=C[C@H](O)[C@@H]4C5=C(C(C)C)CC[C@]5(C)CC[C@@]34C)[C@@]2(O)C1=O      y
 8  CC(CN(C)C)C(=O)/C=C/c1ccc(Cl)c(Cl)c1 (stereo unspecified)      n
 9  O=C(c1ccccc1)n1c2ccc(Br)cc2c2nc3ccccc3nc21      n
10  O=C(Nc1cccc(Cc2cccc(NC(=O)c3ccccc3)c2)c1)c1ccccc1      n

* * *

# System: ACHN
# assayProcedure: NCI tumour cell line growth inhibition, 48 h
Calls of active or inactive are those of the source. Rule as the data show it: active = GI50 up to about 1.1 µM and inactive = higher.
measuredMetric: GI50

>>> df
                                   compound  measuredmetric               result
0  CCCCCCCCCCCC(=O)OCC1OC(n2cc(F)c(=O)[nH]c2=O)C(NC(=O)OCc2ccccc2)C(OC(=O)CCCCCCCCCCC)C1O (stereo not drawn)            GI50  > 100 µM (inactive)
1     O=C(O)CNc1cc(-c2ccccc2)nc(NCC(=O)O)n1            GI50  > 100 µM (inactive)
2  O=C1OCC(C(=O)c2cccc(O)c2)C1=O (stereo not drawn)            GI50  > 100 µM (inactive)
3  [O-][S+](C(c1ccccc1)=P(c1ccccc1)(c1ccccc1)c1ccccc1)c1ccc(Cl)cc1 (stereo not drawn)            GI50   26.4 µM (inactive)
4  CC1=CC(=O)/C(=C(/C)NCCN(CCN/C(C)=C2\C(=O)C=C(C)OC2=O)CCN/C(C)=C2\C(=O)C=C(C)OC2=O)C(=O)O1            GI50  > 100 µM (inactive)
5            N#CCCN(CCC#N)c1ccc(C(=O)NN)cc1            GI50  > 100 µM (inactive)
6  COc1ccc(NC(=O)C(=O)Cc2nc3ccc([N+](=O)[O-])cc3nc2O)c(OC)c1            GI50  > 100 µM (inactive)
7  C[C@H](CCC(=O)O)[C@H]1CC[C@@]2(C)[C@@H]3C(=O)C[C@H]4C(C)(C)[C@@H](O)CC[C@]4(C)[C@H]3C(=O)C[C@]12C            GI50  > 100 µM (inactive)

* * *

Overview of reported GI50 across a group of molecules:
# System: TK-10
# assayProcedure: NCI tumour cell line growth inhibition, 48 h
Activity calls are given as the source filed them. No stated cut-off is given here; in the data, active = GI50 up to about 1.1 µM and inactive = higher.

molecule	GI50
CSc1snc2sc3c(Cl)nnnc3c12	16.9 µM (inactive)
O=c1c2cccnc2ncn1CCCN1CCCC1	> 100 µM (inactive)
CSc1nc(Cl)c2c(n1)Sc1ncnn1C2O (centres undefined)	17.2 µM (inactive)
CN(Cc1cc(Br)cc(Br)c1O)Cc1c(O)ccc2ccccc12	17.4 µM (inactive)
Cc1ccc(S(=O)(=O)N(/N=C/C=C/c2ccccc2)c2nnc(-c3ccccc3)c(-c3ccccc3)n2)cc1	24.7 µM (inactive)
COc1ccc([Se]c2ccc(OC)cc2)cc1	> 100 µM (inactive)
O=C(O)Cc1ccc2c(c1)/C(=C1/Nc3ccccc3C1=O)C(=O)N2	> 100 µM (inactive)
O=C1CCC[C@]2(CCCC(=O)N2)C1	> 100 µM (inactive)
CC1OC(OC2C(O)COC(OC3C(C)OC(OC4C(OC(=O)[C@]56CCC(C)(C)C[C@@H]5C5=CCC7[C@@]8(C)C[C@H](O)[C@H](OC9OC(CO)C(O)C(OC%10OC(CO)C(O)C(O)C%10O)C9O)[C@@](C)(CO)[C@@H]8CC[C@@]7(C)[C@]5(C)CC6)OCC(O)C4O)C(O)C3OC3OCC(O)C(O)C3O)C2O)C(O)C(O)C1O (some centres undefined)	10 µM (inactive)
